- MEASUREMENT_TARGET: Neurotensin receptor type 1 (Homo sapiens)
- Sequence (P30989 whole entry, the tested form may be a part): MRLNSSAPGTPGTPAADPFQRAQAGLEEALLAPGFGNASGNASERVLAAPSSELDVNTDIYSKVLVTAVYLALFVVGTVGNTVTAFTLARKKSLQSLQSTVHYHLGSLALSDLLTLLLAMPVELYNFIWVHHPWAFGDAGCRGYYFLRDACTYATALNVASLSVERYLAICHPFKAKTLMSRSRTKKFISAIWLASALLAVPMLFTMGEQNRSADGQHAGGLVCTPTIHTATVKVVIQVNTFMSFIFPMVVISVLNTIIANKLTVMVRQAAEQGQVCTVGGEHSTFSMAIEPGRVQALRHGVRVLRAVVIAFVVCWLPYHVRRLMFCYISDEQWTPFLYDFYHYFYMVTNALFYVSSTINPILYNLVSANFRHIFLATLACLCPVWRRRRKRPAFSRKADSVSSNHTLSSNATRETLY
- MEASUREMENT_DESCRIPTION: Agonist activity at GFP10-tagged human NTS1 expressed in CHO-K1 cells assessed as Rluc2-fused beta-arrestin2 recruitment after 20 mins by BRET assay
MEASURE_NAME: EC50
Show the value, then the unit it is measured in.

Query: Consider the compound CC[C@H](C)[C@H](NC(=O)[C@@H]1Cc2ccc(O)c(c2)CC=CCCCCCCC(=O)N[C@@H](CCCCN)C(=O)N2CCC[C@H]2C(=O)N1)C(=O)N[C@@H](CC(C)C)C(=O)O and give its measured EC50.
Result: 1370 nM

----------
- MEASUREMENT_TARGET: Neurotensin receptor type 1 (Homo sapiens)
- MEASUREMENT_DESCRIPTION: Displacement of 125I-[Tyr3]-NT from human NTS1 receptor expressed in CHO-K1 cell membranes after 60 mins by gamma-counting method
pIC50: −log10 of the molar value.
Decision: pIC50 >= 5 yields 1, all other cases yield -1.

CHEMICAL_SMILES: CC(C)C[C@H](NC(=O)[C@H]1CC=CC[C@H](N)C(=O)N[C@@H](CCCCN)C(=O)N2CCC[C@H]2C(=O)N[C@@H](Cc2ccc(O)cc2)C(=O)N1)C(=O)O
QUALITATIVE_LABEL: -1

CHEMICAL_SMILES: CC(C)C[C@H](NC(=O)[C@H]1CC=CC[C@@H](N)C(=O)N[C@@H](CCCCN)C(=O)N2CCC[C@H]2C(=O)N[C@@H](Cc2ccc(O)cc2)C(=O)N1)C(=O)O
QUALITATIVE_LABEL: -1

Turning to the following compound.
Query: Does CC[C@H](C)[C@H](NC(=O)[C@@H]1Cc2ccc(O)c(c2)CC=CCCCCCCC(=O)N[C@@H](CCCCN)C(=O)N2CCC[C@H]2C(=O)N1)C(=O)N[C@@H](CC(C)C)C(=O)O have a reported pIC50 of at least 5?
Result: 1

----------
Please provide measured half-life for the entries that follow.
- MEASUREMENT_DESCRIPTION: Half life in rat plasma by UPLC-MS analysis
- Assay type: ADME, cell-free

CHEMICAL_SMILES: CC[C@H](C)[C@H](NC(=O)[C@@H]1Cc2ccc(O)c(c2)CC=CCCCCCCC(=O)N[C@@H](CCCCN)C(=O)N2CCC[C@H]2C(=O)N1)C(=O)N[C@@H](CC(C)C)C(=O)O
READOUT_VALUE: 12 h

Note: attention shifts to another entry.
Query: May I ask what half-life has been recorded for CC[C@H](C)[C@H](NC(=O)[C@H](Cc1ccc(O)cc1)NC(=O)[C@@H]1CCCN1C(=O)[C@H](CCCNC(=N)N)NC(=O)[C@@H](N)CCCNC(=N)N)C(=O)N[C@@H](CC(C)C)C(=O)O ?
Result: 0.05 h
